- Target Entity: D(2) dopamine receptor (Homo sapiens, UniProt P14416)
- Sequence (P14416 whole entry): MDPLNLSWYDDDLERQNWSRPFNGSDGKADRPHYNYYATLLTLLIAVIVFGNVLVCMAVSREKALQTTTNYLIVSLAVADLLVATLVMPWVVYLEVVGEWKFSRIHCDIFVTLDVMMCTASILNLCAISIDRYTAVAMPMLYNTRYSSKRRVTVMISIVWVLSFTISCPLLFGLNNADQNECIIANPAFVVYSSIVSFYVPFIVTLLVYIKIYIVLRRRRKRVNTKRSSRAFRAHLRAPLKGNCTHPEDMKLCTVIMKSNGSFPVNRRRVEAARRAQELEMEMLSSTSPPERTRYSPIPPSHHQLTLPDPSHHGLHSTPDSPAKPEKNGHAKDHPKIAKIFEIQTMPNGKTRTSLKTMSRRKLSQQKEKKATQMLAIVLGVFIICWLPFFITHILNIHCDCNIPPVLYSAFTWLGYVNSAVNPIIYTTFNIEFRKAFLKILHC
# Ki listing for each entry below

Compound	Target Entity	Result
C[C@@H]1Cc2c([nH]c3ccccc23)Cc2ccccc2CCN1C	D(2) dopamine receptor (Homo sapiens, UniProt P14416)	> 10 µM

Here's the next entry for you.
Request: Look up Ki: CN1CCc2ccccc2Cc2[nH]c3ccccc3c2CC1C(=O)O (racemic)
Result: > 10 µM

* * *

- Target Entity: D(1A) dopamine receptor (Homo sapiens)
- Sequence (P21728 whole entry): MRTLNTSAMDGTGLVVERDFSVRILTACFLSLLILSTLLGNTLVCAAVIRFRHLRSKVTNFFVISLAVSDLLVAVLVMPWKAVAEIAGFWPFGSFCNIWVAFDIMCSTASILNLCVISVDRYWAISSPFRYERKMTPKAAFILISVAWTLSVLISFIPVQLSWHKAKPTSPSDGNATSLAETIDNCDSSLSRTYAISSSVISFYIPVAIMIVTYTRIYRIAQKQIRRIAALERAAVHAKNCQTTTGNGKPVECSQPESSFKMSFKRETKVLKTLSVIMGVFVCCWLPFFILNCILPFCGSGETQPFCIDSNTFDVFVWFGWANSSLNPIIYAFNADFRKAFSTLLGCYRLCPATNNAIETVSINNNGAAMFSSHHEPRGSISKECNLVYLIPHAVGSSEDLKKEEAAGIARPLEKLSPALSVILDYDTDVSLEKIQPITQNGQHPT
- Method Description: Displacement of [3H]SCH23390 from human dopamine D1 receptor expressed in human HEK293 cells
pKi: −log10 of the molar value.
Property Label: pKi

Compound	pKi
CN1CCc2ccccc2Cc2[nH]c3ccccc3c2C[C@@H]1CO	7.99

[I] C[C@H]1Cc2c([nH]c3ccccc23)Cc2ccccc2CCN1C
[II] CN1CCc2ccccc2Cc2[nH]c3ccccc3c2C[C@H]1CO
[III] C[C@@H]1Cc2c([nH]c3ccccc23)Cc2ccccc2CCN1C
Request: Endpoint returns the given compounds ordered by ascending pKi. Give the labels in the order requested.
Result: III, II, I
(III: 6.19, II: 6.94, I: 8.21)
